Test system: T1, human recombinant soluble ACE2 (human, UniProt Q9BYF1 18-740)
T1 construct: also called hrsACE2
T1 sequence (Q9BYF1 18-740 limits assumed): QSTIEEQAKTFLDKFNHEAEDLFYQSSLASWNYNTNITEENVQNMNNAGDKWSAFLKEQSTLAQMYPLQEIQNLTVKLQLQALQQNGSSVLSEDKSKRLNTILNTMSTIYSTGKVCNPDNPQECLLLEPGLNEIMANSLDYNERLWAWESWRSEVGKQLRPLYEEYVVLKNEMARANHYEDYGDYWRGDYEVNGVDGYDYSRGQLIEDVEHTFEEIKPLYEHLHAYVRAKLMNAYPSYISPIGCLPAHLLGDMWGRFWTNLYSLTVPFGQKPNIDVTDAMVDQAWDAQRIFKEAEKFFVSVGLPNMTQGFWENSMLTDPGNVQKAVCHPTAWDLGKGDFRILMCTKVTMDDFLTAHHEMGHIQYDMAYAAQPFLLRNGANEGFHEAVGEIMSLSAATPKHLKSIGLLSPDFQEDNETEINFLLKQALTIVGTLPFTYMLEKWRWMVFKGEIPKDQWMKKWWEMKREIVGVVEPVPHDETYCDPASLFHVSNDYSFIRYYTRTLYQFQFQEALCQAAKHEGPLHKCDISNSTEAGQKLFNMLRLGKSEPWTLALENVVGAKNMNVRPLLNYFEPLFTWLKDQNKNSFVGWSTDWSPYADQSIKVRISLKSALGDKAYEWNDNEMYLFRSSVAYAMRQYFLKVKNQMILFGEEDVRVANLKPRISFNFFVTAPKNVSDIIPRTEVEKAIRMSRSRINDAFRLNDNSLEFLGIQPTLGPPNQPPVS
Procedure details: ELISA screen
Reported endpoint: Mean normalized OD (OD)
Give the quantity in OD, number only.

Task: Item Sell CRD-mouse IgG2a-Fc fusion protein (Fc fusion) WTYHYSEKPMNWENARKFCKQNYTDLVAIQNKREIEYLENTLPKSPYYYWIGIRKIGKMWTWVGTNKTLTKEAENWGAGEPNNKKSKEDCVEIYIKRERDSGKWNDDACHKRKAALCGGGSGGGSGGGS : provide Mean normalized OD
Result: -0.23

Task: Item Mbl2 CRD-mouse IgG2a-Fc fusion protein (Fc fusion) KVGKKYFVSSVKKMSLDRVKALCSEFQGSVATPRNAEENSAIQKVAKDIAYLGITDVRVEGSFEDLTGNRVRYTNWNDGEPNNTGDGEDCVVILGNGKWNDVPCSDSFLAICEGGGSGGGSGGGS : provide Mean normalized OD
Result: 0

Task: Item Reg2 CRD-mouse IgG2a-Fc fusion protein (Fc fusion) INCPEGANAYGSYCYYLIEDRLTWGEADLFCQNMNAGHLVSILSQAESNFVASLVKESGTTASNVWTGLHDPKSNRRWHWSSGSLFLFKSWATGAPSTANRGYCVSLTSNTAYKKWKDENCEAQYSFVCKFGGGSGGGSGGGS : provide Mean normalized OD
Result: -0.042

Task: Item Pkd1l3 CRD-mouse IgG2a-Fc fusion protein (Fc fusion) GGNSCYQLNRLFCDFQEADNYCHAQRGRLAHTWNPKLRGFLKSFLNEETVWWVRGNLTLPGSHPGINQTGGDDVLRNQKPGECPSVVTHSNAVFSRWNLCIEKHHFICQGGGSGGGSGGGS : provide Mean normalized OD
Result: 0.017

Task: Item Mrc2_8 CRD-mouse IgG2a-Fc fusion protein (Fc fusion) FREHCYSFHMEVLLGHKEALQRCQKAGGTVLSILDEMENVFVWEHLQTAEAQSRGAWLGMNFNPKGGTLVWQDNTAVNYSNWGPPGLGPSMLSHNSCYWIQSSSGLWRPGACTNITMGVVCGGGSGGGSGGGS : provide Mean normalized OD
Result: -0.001

Task: Item Klrk1 CRD-mouse IgG2a-Fc fusion protein (Fc fusion) HRNNCYQFFNEEKTWNQSQASCLSQNSSLLKIYSKEEQDFLKLVKSYHWMGLVQIPANGSWQWEDGSSLSYNQLTLVEIPKGSCAVYGSSFKAYTEDCANLNTYICMGGGSGGGSGGGS : provide Mean normalized OD
Result: -0.003

Task: Item Clec2g CRD-mouse IgG2a-Fc fusion protein (Fc fusion) VGNKCFYFSEYTSNWTFAQTFCMAQEAQLARFDNEKELNFLMRYKANFDSWIGLHRESSEHPWKWTDNTEYNNMIPIQGVETCAYLSGNGISSSRHYIPRIWICSGGGSGGGSGGGS : provide Mean normalized OD
Result: -0.722

Task: Item Siglec12 CRD-mouse IgG2a-Fc fusion protein (Fc fusion) PQEVFTLNVERKVVVQEGLCVLVPCNFSYLKKRLTDWTDSDPVHGFWYREGTDRRKDSIVATNNPIRKAVKETRNRFFLLGDPWRNDCSLNIREIRKKDAGLYFFRLERGKTKYNYMWDKMGGGSGGGSGGGS : provide Mean normalized OD
Result: -0.105
